- assay.text: Volume of distribution at steady state in Sprague-Dawley rat at 2 mg/kg, iv and 10 mg/kg, po
- Type: ADME, organism-based
- condition.details: in vivo, read-out: Vdss
experimental.endpoint: Vd (L/kg)
Please reply with the bare figure in L/kg and do not write the unit itself.

Use the examples below as a reference point.
CC(C)(C)NCCCc1cc(-c2cccc(C(F)(F)F)c2)nc(C#N)n1
12
CCC(CC)NCCCc1cc(-c2cccc(C(F)(F)F)c2)nc(C#N)n1
3.5

Now look at this one.
Input line: State the recorded Vd for this entry: `N#Cc1nc(CCCN2CCCCC2)cc(-c2cccc(C(F)(F)F)c2)n1`
Output line: 3.3
